# experimental system: Voltage-dependent T-type calcium channel subunit alpha-1H (Homo sapiens)
# assay overview: Ability to block calcium channel T type 3.2v expressed in Xenopus oocytes at 100 uM by two-microelectrode voltage-clamp method
# Type: functional, cell-based
# run conditions: Oocyte
value kind: inhibition (%)

Please review the entries below; each comes with its answer.
O=C1OC[C@H](C(=O)NCc2ccccc2)N[C@H]1Cc1ccc(Cl)cc1 (relative stereo)    19.1
O=C(NCc1ccccc1)[C@@H]1COC(=O)[C@H](Cc2ccc([N+](=O)[O-])cc2)N1 (relative stereo)    74.8
C[C@H](NC(=O)[C@@H]1COC(=O)[C@H](Cc2ccc(O)cc2)N1)c1ccccc1    45.8

a. O=C(NCc1ccccc1)[C@@H]1COC(=O)[C@H](Cc2ccc(Cl)cc2)N1 (relative stereo)
b. C[C@H](NC(=O)[C@@H]1COC(=O)[C@H](Cc2ccc(Cl)cc2)N1)c1ccccc1
c. O=C1OC[C@H](C(=O)NCc2ccccc2)N[C@H]1Cc1ccc(F)cc1 (relative stereo)
## Task // sort entries: inhibition, high to low Field: ranking. Enter the labels in the order requested.
## Result a, b, c
(a: 73.5%, b: 48.4%, c: 12.3%)
